B1: C10orf62 (parent)
chain: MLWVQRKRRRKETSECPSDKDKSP

# Variants of: B1
# test description: protein stability index of a GFP-peptide fusion (GPS, HEK-293T) (PSI 1-6); higher = more stable;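 note: lentivirally expressed fusions sorted by FACS into six bins by GFP to DsRed ratio, PSI derived from sequencing read proportions per bin multiplied by bin number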
# cond: c terminus: a fixed tail appended
Class t: protein stability index at least 3. Class f: protein stability index below 3.

The following variants have reported results that may help.
Quick check: does K22I have protein stability index greater than or equal to 3?
f

Is the recorded value of protein stability index equal to or greater than 3 for this variant? L2T
t

Is reported protein stability index greater than or equal to 3 here: M1V
t

***
Quick check: does S18T have protein stability index greater than or equal to 3?
f

Confirm if protein stability index reported for the variant V4G is 3 or above.
t

The reported numbers originate from the supplement of paper PMC10567573.
